Read-out: sulfotransferase 2A1 (SULT2A1), SULT2A1 (gene 6822)
Test: LTEA_HepaRG_SULT2A1: Life Technologies and Expression Analysis (LTEA) Assay for sulfotransferase 2A1 (SULT2A1) using HepaRG (AID 2283531)
Details: mRNA level, 48 h; actives raise or lower the signal
Activity calls are given as the source filed them. Rule for the calls: active = hit-call score of the fitted dose curve at least 0.9, where 1 is the maximum; inactive = score below 0.9.
Choose the fitting class; nothing outside y for active, n for inactive is accepted.

Illustrative cases are given below, each with its answer.
Query: Would you mind telling me which call this test gave Nc1nc(Cl)nc2c1ncn2[C@H]1C[C@H](O)[C@@H](CO)O1 ?
Result: y

Query: Would you mind telling me which call this test gave CCCCCCC(CCCCCCCCCCC(=O)OCC(COC(C)=O)OC(C)=O)OC(C)=O (stereo not drawn) ?
Result: n

Query: Would you mind telling me which call this test gave Oc1ccccc1O ?
Result: n

Query: Would you mind telling me which call this test gave O=C(N[C@@H](c1ccccc1)[C@@H]1CCCCN1)c1cccc(C(F)(F)F)c1Cl ?
Result: y

Others:
Query: Would you mind telling me which call this test gave CS(=O)(=O)c1ccc([C@@H](C[C@H]2CCC(=O)C2)C(=O)Nc2cnccn2)cc1Cl ?
Result: n

Query: Would you mind telling me which call this test gave CC(=O)[C@@]1(O)CC[C@H]2[C@@H]3CCC4=CC(=O)CC[C@]4(C)[C@H]3CC[C@@]21C ?
Result: n

Query: Would you mind telling me which call this test gave CN(C)C(=O)NC1(c2ccccc2)CCN(CCC[C@]2(c3ccc(Cl)c(Cl)c3)CCCN(C(=O)c3ccccc3)C2)CC1 ?
Result: y

Query: Would you mind telling me which call this test gave CCCCCCCCCC[N+](C)(C)[O-] ?
Result: n

Query: Would you mind telling me which call this test gave CCCCCCC(C=O)=Cc1ccccc1 ?
Result: n

Query: Would you mind telling me which call this test gave COC(=O)[C@H]1[C@H]2C[C@@H]3c4[nH]c5cc(OC)ccc5c4CCN3C[C@H]2C[C@@H](OC(=O)c2cc(OC)c(OC)c(OC)c2)[C@@H]1OC ?
Result: y

Query: Would you mind telling me which call this test gave O=C1CCCCC1 ?
Result: n

Query: Would you mind telling me which call this test gave CC(COCC(C)OC(=O)c1ccccc1)OC(=O)c1ccccc1 (stereo not drawn) ?
Result: n

Query: Would you mind telling me which call this test gave NCCOCCOCCN ?
Result: n

Query: Would you mind telling me which call this test gave CC(=O)O[C@]1(C(C)=O)CC[C@H]2[C@@H]3C=C(Cl)C4=CC(=O)[C@@H]5C[C@@H]5[C@]4(C)[C@H]3CC[C@@]21C ?
Result: y

Query: Would you mind telling me which call this test gave CCc1nc(N)nc(N)c1-c1ccc(Cl)cc1 ?
Result: y

Query: Would you mind telling me which call this test gave OCC(CO)n1cnc(-c2ccc(F)cc2)c1-c1ccnc(Oc2ccccc2)n1 ?
Result: n

Query: Would you mind telling me which call this test gave CC(C)NCC(O)c1ccc(O)c(O)c1 (stereo not drawn) ?
Result: y

Query: Would you mind telling me which call this test gave O=C1O[C@H]([C@H](O)CO)C(O)=C1O ?
Result: n

* * *

Read-out: Monokine induced gamma interferon (MIG), CXCL9 (gene 4283)
Assay: BSK_CASM3C_MIG: BioMAP Diversity Plus: CASM3C Assay for Monokine induced gamma interferon (MIG) Biomarker Activity (AID 2283048);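 note: MIG protein level measured by ELISA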
Conditions: primary human coronary artery smooth muscle cells; actives raise or lower the signal
Calls of active or inactive are those of the source. Rule for the calls: active = hit-call score of the fitted dose curve at least 0.9, where 1 is the maximum; inactive = score below 0.9.
QUANTITY_MEASURED: AC50

See these solved cases before continuing.
Query: AC50 for COC(=O)[C@H]1[C@H]2C[C@@H]3c4[nH]c5cc(OC)ccc5c4CCN3C[C@H]2C[C@@H](OC(=O)c2cc(OC)c(OC)c(OC)c2)[C@@H]1OC ?
Result: inactive

Query: AC50 for OCC(CO)n1cnc(-c2ccc(F)cc2)c1-c1ccnc(Oc2ccccc2)n1 ?
Result: inactive

Query: AC50 for Cc1ccc(-c2cc(C(F)(F)F)nn2-c2ccc(S(N)(=O)=O)cc2)cc1 ?
Result: 31 µM (active)

Query: AC50 for CCCCCCCCCC[N+](C)(C)[O-] ?
Result: inactive

Query: AC50 for CCCCCCCC(=O)OC ?
Result: inactive

Consider now this further compound.
Query: AC50 for Nc1nc(=S)c2[nH]cnc2[nH]1 ?
Result: inactive
